# Tested System: CSNK2A2 (Homo sapiens, UniProt P19784)
# Construct: endogenous in cells; host or cells: AsPC-1 lysate
# Assay Method Text: Kinobeads competition pulldown in AsPC-1 lysate
# Assay type: binding
# Test Parameters: AsPC-1 lysate; read-out: KDapp
pKd: −log10 of the molar value.
Reported Endpoint: pKd

{"columns": ["Molecule", "Reading"],
 "data": [
  ["CNCc1ccc(-c2cc(-c3nc(-c4ccc(S(=O)(=O)C(C)C)cc4)cnc3N)on2)cc1", 6.66]
]}

----------
Parameter EC50: see the listing below.
# Tested on: BxPC-3
# Assay Method Text: cells
# Set-up: ATPlite luminescence viability of PDAC cell lines, 11-dose single-agent curves, 4-parameter fit
# Test Parameters: Homo sapiens, BXPC-3, 72 h, read-out: EC50 [nM]
Reported Endpoint: EC50

{"columns": ["Molecule", "Reported Endpoint", "Reading"],
 "data": [
  ["COC(=O)N[C@@H](C)CNc1nccc(-c2cn(C(C)C)nc2-c2cc(Cl)cc(NS(C)(=O)=O)c2F)n1", "EC50", "296 nM"],
  ["Cn1cnc2c(F)c(Nc3ccc(Br)cc3Cl)c(C(=O)NOCCO)cc21", "EC50", "1360 nM"],
  ["COC(=O)c1ccc2c(c1)NC(=O)/C2=C(\\Nc1ccc(N(C)C(=O)CN2CCN(C)CC2)cc1)c1ccccc1", "EC50", "4940 nM"],
  ["CO[C@]1(C(=O)N[C@@H](C)c2ccc(-n3cc(F)cn3)nc2)CC[C@H](c2nc(C)cc(Nc3cc(C)[nH]n3)n2)CC1", "EC50", "2910 nM"],
  ["CC(C)N1CCN(Cc2cnc(-c3cc(-c4cccc5[nH]ccc45)cc4[nH]ncc34)o2)CC1", "EC50", "4420 nM"],
  ["CN(C)C/C=C/C(=O)Nc1cc2c(Nc3ccc(F)c(Cl)c3)ncnc2cc1O[C@H]1CCOC1", "EC50", "6420 nM"],
  ["C[C@@H]1CN(C(=O)c2ccc(NC(=O)c3cc(O[C@H](C)c4c(Cl)ccc(F)c4Cl)c(N)nn3)cc2)C[C@H](C)N1", "EC50", "7520 nM"],
  ["C[C@@H](Oc1cc(-c2cnn(C3CCNCC3)c2)cnc1N)c1c(Cl)ccc(F)c1Cl", "EC50", "> 10000 nM"],
  ["C1=N/C2=N/c3ccc(OCCN4CCCC4)c(c3)COC/C=C/COCc3cccc(c3)C(=C1)N2", "EC50", "1190 nM"],
  ["CC1(C)CC=C(c2nc(C3CC(C)(C)OC(C)(C)C3)ccc2NC(=O)c2nc(C#N)c[nH]2)CC1", "EC50", "1960 nM"],
  ["Cc1nc(Nc2ncc(C(=O)Nc3c(C)cccc3Cl)s2)cc(N2CCN(CCO)CC2)n1", "EC50", "78.9 nM"],
  ["COc1cc(Nc2ncc3c(n2)-c2ccc(Cl)cc2C(c2c(F)cccc2OC)=NC3)ccc1C(=O)O", "EC50", "848 nM"],
  ["COc1cc(CCc2cc(NC(=O)c3ccc(N4C[C@@H](C)N[C@@H](C)C4)cc3)n[nH]2)cc(OC)c1", "EC50", "6320 nM"],
  ["COc1cc(OC)c(/C=C/S(=O)(=O)Cc2ccc(OC)c(NCC(=O)O)c2)c(OC)c1", "EC50", "63.2 nM"],
  ["C=CC(=O)Nc1cc(Nc2nccc(-c3cn(C)c4ccccc34)n2)c(OC)cc1N(C)CCN(C)C", "EC50", "> 10000 nM"]
]}

----------
# Test system: AsPC-1 cells
# Assay Method Text: Cell proliferation assay, chemodrug + ATR inhibitor (Incucyte confluence, 72 h);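 also: underlying read-out for every value is AsPC-1 confluence after 72 h incubation at 37 °C and 5% CO2, divided by that well's starting confluence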
# Test Parameters: Homo sapiens, ASPC1, 72 h, read-out: EC50 mean [nM], AsPC1; Experiment ATRi (ATR inhibitor alone); mean of replicates
# EC50 annotations

{"columns": ["Molecule", "EC50 [nM]"],
 "data": [
  ["Nc1nn2cc(F)cnc2c1C(=O)Nc1cncc(F)c1N1CCC(C(=O)N2CCN(C3COC3)CC2)CC1", 128],
  ["C[C@@H]1COCCN1c1cc(C2([S@](C)(=N)=O)CC2)nc(-c2cc[nH]c3nccc2-3)n1", 1720],
  ["CNCc1ccc(-c2cc(-c3nc(-c4ccc(S(=O)(=O)C(C)C)cc4)cnc3N)on2)cc1", 719]
]}

----------
# Test system: HPDE
# Assay Method Text: cells
# Design: ATPlite luminescence viability of PDAC cell lines, 11-dose single-agent curves, 4-parameter fit
# Test Parameters: HPDE, 72 h, read-out: EC50 [nM]
Quick rule for you: EC50 under 500 nM gets true, anything else gets false.

{"columns": ["Molecule", "Assigned Class"],
 "data": [
  ["C=CCn1c(=O)c2cnc(Nc3ccc(N4CCN(C)CC4)cc3)nc2n1-c1cccc(C(C)(C)O)n1 [Adavosertib]", "false"],
  ["CC(=O)c1cc2c(o1)C(=O)c1ccccc1C2=O [Napabucasin]", "true"],
  ["CNC(=O)c1cc(Oc2ccc(NC(=O)Nc3ccc(Cl)c(C(F)(F)F)c3)c(F)c2)ccn1 [Regorafenib]", "false"],
  ["COc1c(OCCCN2CCOCC2)ccc2c1N=C(NC(=O)c1cnc(N)nc1)N1CCN=C21 [Copanlisib]", "true"],
  ["C=CC(=O)Nc1cccc(Oc2nc(Nc3ccc(N4CCN(C)CC4)cc3)nc3ccsc23)c1 [Olmutinib]", "false"],
  ["CC(C)n1nc(-c2ccc3oc(N)nc3c2)c2c(N)ncnc21 [Sapanisertib]", "true"],
  ["CN(C)C[C@@H]1CCn2cc(c3ccccc32)C2=C(C(=O)NC2=O)c2cn(c3ccccc23)CCO1 [Ruboxistaurin]", "false"],
  ["C=CC(=O)Nc1cc(Nc2nccc(-c3cn(C)c4ccccc34)n2)c(OC)cc1N(C)CCN(C)C [Osimertinib]", "false"],
  ["Cc1nc(Nc2ncc(C(=O)Nc3c(C)cccc3Cl)s2)cc(N2CCN(CCO)CC2)n1 [Dasatinib]", "false"],
  ["CCOc1cc2ncc(C#N)c(Nc3ccc(OCc4ccccn4)c(Cl)c3)c2cc1NC(=O)/C=C/CN(C)C [Neratinib]", "true"],
  ["CNC(=O)c1cc(Oc2ccc(NC(=O)Nc3ccc(Cl)c(C(F)(F)F)c3)cc2)ccn1 [Sorafenib]", "false"],
  ["C[C@@H]1COC(Nc2ccc3ncnc(Nc4ccc(OCc5nccs5)c(Cl)c4)c3c2)=N1 [Varlitinib]", "false"],
  ["CN(C)C/C=C/C(=O)Nc1cc2c(Nc3ccc(F)c(Cl)c3)ncnc2cc1O[C@H]1CCOC1 [Afatinib]", "true"],
  ["CCN(CC)CCNC(=O)c1c(C)[nH]c(/C=C2\\C(=O)Nc3ccc(F)cc32)c1C [Sunitinib]", "false"],
  ["C=CC(=O)N1CCC([C@@H]2CCNc3c(C(N)=O)c(-c4ccc(Oc5ccccc5)cc4)nn32)CC1 [Zanubrutinib]", "false"]
]}

----------
# System: PDO B250
# Assay Method Text: PDO viability assay (CellTiter-Glo, 72 h)
# Type: cell-based, human
# Test Parameters: Homo sapiens, Experiment GEM (GEM alone), mean of replicates, read-out: EC50 mean

{"columns": ["Molecule", "EC50 (nM)"],
 "data": [
  ["Nc1ccn([C@@H]2O[C@H](CO)[C@@H](O)C2(F)F)c(=O)n1", 284]
]}

----------
# Test system: MiaPaCa-2
# Assay Method Text: cells
# Set-up: ATPlite luminescence viability of PDAC cell lines, 11-dose single-agent curves, 4-parameter fit
# Test Parameters: Homo sapiens, MIA PaCa-2, 72 h, read-out: EC50 [nM]
In this section, each of the molecules is paired with its reported EC50.
Reported Endpoint: EC50

{"columns": ["Molecule", "Tested System", "Reported Endpoint", "Reading"],
 "data": [
  ["CC[C@@H]1C(=O)N(C)c2cnc(Nc3ccc(C(=O)N[C@H]4CC[C@H](N5CCN(CC6CC6)CC5)CC4)cc3OC)nc2N1C(C)C [Volasertib]", "MiaPaCa-2", "EC50", "12.8 nM"],
  ["Cn1cnc2c(F)c(Nc3ccc(Br)cc3F)c(C(=O)NOCCO)cc21 [Binimetinib]", "MiaPaCa-2", "EC50", "10.7 nM"],
  ["C[C@]1(O)C[C@@H](c2nc(-c3ccc4ccc(-c5ccccc5)nc4c3)c3c(N)nccn32)C1 [Linsitinib]", "MiaPaCa-2", "EC50", "416 nM"],
  ["Nc1cc(C(F)(F)F)c(-c2cc(N3CCOCC3)nc(N3CCOCC3)n2)cn1 [Buparlisib]", "MiaPaCa-2", "EC50", "572 nM"],
  ["C1=N/C2=N/c3ccc(OCCN4CCCC4)c(c3)COC/C=C/COCc3cccc(c3)C(=C1)N2 [Pacritinib]", "MiaPaCa-2", "EC50", "475 nM"],
  ["Cc1ccc(C(=O)OCc2ccc([C@@H](CN)C(=O)Nc3ccc4cnccc4c3)cc2)c(C)c1 [Netarsudil]", "MiaPaCa-2", "EC50", "3630 nM"],
  ["CNC(=O)c1cc(Oc2ccc(NC(=O)Nc3ccc(Cl)c(C(F)(F)F)c3)cc2)ccn1 [Sorafenib]", "MiaPaCa-2", "EC50", "> 10000 nM"],
  ["COc1cc(Nc2ncc3c(n2)-c2ccc(Cl)cc2C(c2c(F)cccc2OC)=NC3)ccc1C(=O)O [Alisertib]", "MiaPaCa-2", "EC50", "87 nM"]
]}
